B1: SNAP91 (parent)
chain: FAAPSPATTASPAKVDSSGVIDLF

Variants of: B1
method description: protein stability index of a GFP-peptide fusion (GPS, HEK-293T) (PSI 1-6); higher = more stable;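 note: lentivirally expressed fusions sorted by FACS into six bins by GFP to DsRed ratio, PSI derived from sequencing read proportions per bin multiplied by bin number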
stated conditions: c terminus: a fixed tail appended
assay endpoint: protein stability index
// no unit string in output, number only

1. FAAPSPATTASPAKADSSGVIDLF [V15A]: 2.52
2. FAAPSPATTASCAKVDSSGVIDLF [P12C]: 1.85
3. FAAPSPANTASPAKVDSSGVIDLF [T8N]: 2.58
4. LAAPSPATTASPAKVDSSGVIDLF [F1L]: 3.4
5. FAAPSPATTASPAKVDWSGVIDLF [S17W]: 1.63
6. FAAPSPATTARPAKVDSSGVIDLF [S11R]: 2.45

[in] I would be grateful if you could share the reported protein stability index for FQAPSPATTASPAKVDSSGVIDLF [A2Q] .
[out] 2.17

[in] I would be grateful if you could share the reported protein stability index for FAAPSPATKASPAKVDSSGVIDLF [T9K] .
[out] 2.91
